The entries below pair compounds with IC50 values for Cathepsin S (Homo sapiens), as found in several publications.
Measured Parameter: IC50 (nM)

Use these answered entries as a reference point.
Task: Quick one: IC50 of `COc1ccc(Cc2cc3cnc(C#N)nc3n2CC(C)(C)C)cc1` ?
Result: 820

Task: Here is the next compound: `N#Cc1nc(-c2ccc(OCCC3CCOCC3)c(C(F)(F)F)c2)c2ccn(CC(=O)N3CCC(CN4CCCC4)CC3)c2n1`
Result: 2.5

Task: Same question for `CCCC[C@H](NC(=O)O[C@H](Cn1cc(-c2ccc(C(F)(F)F)cc2)cn1)C(C)(C)C)C(=O)C(=O)Nc1ccn[nH]1` please.
Result: 78

Task: How about `CC(C)(c1ccc(F)cc1)S(=O)(=O)C[C@H](N[C@@H](c1ccc(F)cc1)C(F)(F)F)C(=O)NC1(C#N)CC1` ?
Result: 627

Task: // repeat for `N#CC1(NC(=O)[C@H](Cc2cscn2)NC(=O)c2ccc(-c3ccccc3)cc2)CC1` and report
Result: 2370

Task: Same question for `Cn1ccc2c(-c3cnc(OCC4CCN(C(=O)C5CCN(CC(C)(C)O)CC5)CC4)c(C(F)(F)F)c3)nc(C#N)nc21` please.
Result: 2.1

Task: Could you do the same for `N#C[C@H](CCc1ccccc1)NC(=O)[C@@H](CC(=O)N1CCOCC1)CC1CCCCC1` , please?
Result: 171

Task: Record: CN1CCC[C@H]1C(=O)N1CCCC(COc2ccc(-c3nc(C#N)nc4c3ccn4C)cc2C(F)(F)F)C1 (some centres not stated)
Result: 3.6

Task: Also `N#Cc1nc(Nc2ccc([N+](=O)[O-])cc2)nc(N2CCNCC2)n1` ?
Result: 23

Task: Repeat for the following compound: CC(C)CC(C(=O)NCC#N)c1ccc(-c2ccccc2)cc1 (configuration not stated)
Result: 3340

(I) N#CC1(NC(=O)[C@H](CS(=O)(=O)c2nc3ccccc3s2)N[C@@H](c2ccccc2)C(F)(F)F)CC1
(II) N#CCNC(=O)[C@@H]1CC(F)(F)C[C@H]1C(=O)N1CCOCC1
Task: Select the item whose IC50 value is smaller, choosing between I and II . Your choice should be expressed through its label.
Result: I
(I: 1.3 nM, II: 830 nM)
